Literature compilation of pIC50 measurements on Hepatocyte growth factor receptor (Homo sapiens).
pIC50: −log10 of the molar value.

Consider the worked cases shown below.
>>> endpoint_result("Cn1ncc2ccc(-c3n[nH]c4c3Cc3sc(-c5ccc(CN6CCCC6=O)cc5)cc3-4)cc21")
"< 6.00"
>>> endpoint_result("Oc1ccc(F)c(C(O)c2c[nH]c3ncc(-c4cccnc4)cc23)c1F (stereo not drawn)")
"≥ 5.00"
>>> endpoint_result("CC(C)(C)OC(=O)NCC#Cc1cnc2c(c1)N(Cc1c(Cl)cccc1Cl)CCN2")
"< 4.00"
>>> endpoint_result("CCOC(=O)Nc1cccc(Cn2nc(-c3ccc(C(=O)NCCCn4ccnc4)cc3)ccc2=O)c1")
"6.00 to 8.00"
>>> endpoint_result("COc1ccc2c(Oc3ccc(NC(=O)c4cc5ncsc5n(-c5ccc(F)cc5)c4=O)cc3F)ccnc2c1")
"7.00 to 8.00"

Turning to the following compound.
query: Query: pIC50; subject: COc1cc2nccc(Oc3c(F)cc(NC(=O)c4cnccc4OC4CC4)cc3F)c2cn1
result: ≥ 7.00

###

Literature compilation of IC50 measurements on Hepatocyte growth factor receptor (Homo sapiens, UniProt P08581).

Consider the worked cases shown below.
>>> endpoint_result("COc1cc2c(Oc3ccc(NC(=O)C4(C(=O)Nc5ccc(F)cc5)CC4)cc3)ccnc2cc1OC(=O)N1CC[C@@H](O)C1")
"< 100 nM"
>>> endpoint_result("CC(C(N)=O)n1cc(-c2cnc(N)c(-c3nc4ccccc4s3)c2)cn1 (centres unmarked)")
"100 to 1000 nM"
>>> endpoint_result("CCOC(=O)Nc1cccc(Cn2nc(-c3ccc(CNC(=O)CCNC=O)cc3)ccc2=O)c1")
"10 to 1000 nM"

query: Query: IC50; subject: O=C(Nc1ccc(Cc2c[nH]c3ncccc23)cc1)Nc1cccc(C(F)(F)F)c1
result: ≤ 10000 nM

query: Now try COc1ccncc1C(=O)Nc1cc(F)c(Oc2ccnc3cc(OCCO)ccc23)c(F)c1 .
result: ≤ 100 nM

query: Now try CCOC(=O)Nc1cccc(Cn2nc(-c3cccc(F)c3)ccc2=O)c1 .
result: 10 to 1000 nM

query: Now try CCOc1ccn(-c2ccc(F)cc2)c(=O)c1C(=O)Nc1cc(F)c(Oc2ccnc(-c3cnn(C(C)C)c3)c2)cc1F .
result: ≤ 100 nM

query: Now try CCc1cc(NC(=O)Nc2ccc(Oc3ccnc(-c4cnn(C(C)C)c4)c3)cc2F)n(-c2cccc(C#N)c2)n1 .
result: < 1000 nM

###

Literature compilation of IC50 measurements on Hepatocyte growth factor receptor (Homo sapiens, UniProt P08581).

Consider the worked cases shown below.
>>> endpoint_result("O=C1CNc2ncc(-c3cccnc3)cc2N1Cc1c(Cl)cccc1Cl")
"> 100000 nM"
>>> endpoint_result("CCc1ccc2nnc(Cc3ccc4ncc(-c5cnn(C6CNC6)c5)cc4c3F)n2n1")
"< 100 nM"
>>> endpoint_result("CN(C)C(=O)c1cc(F)cc(-c2ccc3nnc(Cc4ccc5ncccc5c4)n3n2)c1")
"100 to 1000 nM"
>>> endpoint_result("Cc1ccc2nnc(C(C)c3ccc4nc(NC(=O)C5CC5)cn4n3)n2c1 (centres unmarked)")
"250 to 630 nM"

query: Query: IC50; subject: CC1(C)CN(Cc2cc(F)ccc2F)c2cc(-c3ccc(C(=O)N4CCC[C@H]4CN4CCCC4)cc3)cnc2N1
result: 10000 to 100000 nM

###

Literature compilation of IC50 measurements on Hepatocyte growth factor receptor (Homo sapiens).

>>> endpoint_result("N#Cc1ccc(-c2ccc3nnc(C(F)(F)c4ccc5nc(NC(=O)C6CC6)cn5n4)n3c2)cc1")
"< 30 nM"
>>> endpoint_result("C[C@@H](c1ccc2nc(NC(=O)C3CC3)cn2n1)c1nnc2ccc(-c3cnn(C)c3)cn12")
"< 30 nM"
>>> endpoint_result("CN(C)C(=O)c1ccc(-c2ccc3nnc(Cc4ccc5ncccc5c4)n3n2)cc1")
"100 to 1000 nM"

query: Query: IC50; subject: COc1cc2c(Oc3c(F)cc(NC(=O)c4c(OCC(F)F)ccnc4F)cc3F)ccnc2cc1OCCO
result: ≤ 100 nM

query: Now try CCCN(c1ccc2ncc(-c3ccc4cn[nH]c4c3)n2n1)C1CCOCC1 .
result: > 30000 nM

query: Now try Cc1cccc(-c2c(CSCc3ccccc3)[nH]c3ncccc23)c1 .
result: ≤ 10000 nM

query: Now try CC(C)n1cc(C(=O)Nc2ccc(Oc3ccnc4cc(OCCCN(C)C5CCC5)c5c(c34)OCCO5)c(F)c2)c(=O)n(-c2ccc(F)cc2)c1=O .
result: ≤ 50 nM

query: Now try CCOc1ccn(-c2ccc(F)cc2)c(=O)c1C(=O)Nc1ccc(Oc2ccnc3cc(OCCCN(C)CCOC)c4c(c23)OCCO4)c(F)c1 .
result: ≤ 50 nM

###

Literature compilation of IC50 measurements on Hepatocyte growth factor receptor (Homo sapiens, UniProt P08581).

>>> endpoint_result("Nc1ncc(-c2cnn(C3CCNCC3)c2)cc1-c1nc2c(C(F)(F)F)c(F)ccc2s1")
"100 to 1000 nM"
>>> endpoint_result("C=Cn1nnc(C)c1-c1cnc(N)c(OC(C)c2cc(F)ccc2OC)c1 (stereo not shown)")
"> 18800 nM"
>>> endpoint_result("CC(O)c1cccc(Nc2nccc(-c3ccc(S(=O)(=O)Cc4ccccc4)s3)n2)c1 (stereo not shown)")
"< 1000 nM"

query: Query: IC50; subject: Cn1cc2cc(C(F)(F)c3nnc4ccc(-c5cnn(C6CC6)c5)nn34)c(F)cc2n1
result: 31.6 nM

query: Now try CCCS(=O)(=O)Nc1ccc(F)c(C(=O)c2c[nH]c3ncc(Br)cc23)c1F .
result: ≤ 10000 nM

query: Now try CCn1cc(C(=O)Nc2ccc(Oc3ccnc4cc(OCC(C)(C)O)c5c(c34)OCCO5)cc2)c(=O)n(-c2ccc(F)cc2)c1=O .
result: ≤ 50 nM

query: Now try C[C@@H](Oc1c(N)ncc2[nH]ccc12)c1c(Cl)ccc(F)c1Cl .
result: 5000 to 20000 nM

query: Now try COCCOc1cc2nccc(Oc3c(F)cc(NC(=O)c4cnccc4OC4CC4)cc3F)c2cc1OC .
result: ≤ 100 nM

query: Now try CC(=O)N1CCN(CCCOc2cc3nccc(Oc4ccc(NC(=O)c5cn(C(C)C)c(=O)n(-c6ccc(F)cc6)c5=O)cc4F)c3c3c2OCCO3)CC1 .
result: ≤ 50 nM

query: Now try CC(C)COc1cc2nccc(Oc3ccc(NC(=O)c4cn(C)c(=O)n(-c5ccc(F)cc5)c4=O)cc3F)c2c2c1OCCO2 .
result: 500 to 5000 nM

###

pIC50: −log10 of the molar value.
Literature compilation of pIC50 measurements on Hepatocyte growth factor receptor (Homo sapiens).

Consider the worked cases shown below.
>>> endpoint_result("Cn1ncc2ccc(-c3n[nH]c4c3Cc3sc(-c5ccc(C=C6CCOCC6)cc5)cc3-4)cc21")
"< 6.00"
>>> endpoint_result("CNCCOc1cc2nccc(Oc3c(F)cc(NC(=O)c4cnccc4OC4CC4)cc3F)c2cc1OC")
"≥ 7.00"
>>> endpoint_result("CCOc1ccn(-c2ccc(F)cc2)c(=O)c1C(=O)Nc1ccc(Oc2ccnc3cc(OCC(C)(C)O)c4c(c23)OCCO4)c(F)c1")
"≥ 7.30"

query: Query: pIC50; subject: Cn1cc2cc(Cn3nnc4ncc(-c5ccc(P(C)(C)=O)c(F)c5)nc43)ccc2n1
result: > 8.00

query: Now try Brc1ccc(-c2ccnc(Nc3cccc(CN4CCOCC4)c3)n2)s1 .
result: 5.30 to 6.00

query: Now try CN1CCC(COc2cnc(-c3cccc(Cn4cc(-c5cc(C#N)ccn5)cc(F)c4=O)c3)nc2)CC1 .
result: 7.81

query: Now try CNC(=O)c1ccc(-c2ccc3nnc(Sc4ccc5ncccc5c4)n3n2)cc1F .
result: > 7.00

query: Now try O=C(c1cccc(-c2cnc3c(c2)N(Cc2ccccc2)C(=O)CN3)c1)N1CCCC1 .
result: 4.00 to 5.00

query: Now try CNCCCOc1cc2nccc(Oc3c(F)cc(NC(=O)c4cnccc4OC4CCC4)cc3F)c2cc1OC .
result: ≥ 7.00

query: Now try N/C(Cc1nc2cnc3ccc(Cl)cc3c2n1-c1ccccc1Cl)=N/O .
result: 6.00 to 6.30

###

Literature compilation of pIC50 measurements on Hepatocyte growth factor receptor (Homo sapiens).
pIC50: −log10 of the molar value.

>>> endpoint_result("Cn1ncc2ccc(-c3n[nH]c4c3Cc3sc(C5CCN(C(=O)OC(C)(C)C)CC5)cc3-4)cc21")
"< 6.00"
>>> endpoint_result("CC(=O)c1ccc2c(c1)sc(=O)n2Cc1cccc(-c2ncc(OCCN3CCOCC3)cn2)c1")
"6.00 to 8.00"
>>> endpoint_result("CC(C)n1cc(-c2ccc3nnc(C(F)(F)c4ccc5nn(C)cc5c4F)n3n2)cn1")
6.99
>>> endpoint_result("COCCNC(=O)[C@@H]1C[C@H](n2cc(-c3cnc(N)c(-c4cc5c(Cl)ccc(F)c5cn4)c3)cn2)CN1")
"4.70 to 6.00"
>>> endpoint_result("CCc1ccc2nnc(Cc3c(F)cc4ncc(-c5cnn(C6CNC6)c5)cc4c3F)n2n1")
"> 7.00"

query: Query: pIC50; subject: CNCCOc1cc2nccc(Oc3c(F)cc(NC(=O)c4cnccc4OC4COC4)cc3F)c2cc1OC
result: ≥ 7.00

query: Now try COCCN(C)CCCOc1cc2nccc(Oc3ccc(NC(=O)c4cn(C(C)C)c(=O)n(-c5ccc(F)cc5)c4=O)cc3F)c2c2c1OCCO2 .
result: ≥ 7.30

query: Now try CCn1cc(-c2cnc3ccc(Sc4nnc5ccc(C)nn45)cc3c2)cn1 .
result: > 7.00

query: Now try COc1cc2ncnc(Oc3ccc(NC(=O)c4cccn(-c5ccc(F)cc5)c4=O)cc3F)c2c2c1OCCO2 .
result: ≥ 7.30
